# Tested on: 5-LO mRNA
# measurement description: Downregulation of 5-LO gene expression (5-LO mRNA by real-time RT-PCR) in acetylated-LDL-stimulated macrophage cell lines
# Type: cell-based, human and mouse
# run parameters: 0.1 uM compound; macrophage cell line (THP-1 or J774, not specified)
Reported values of inhibition at 0.1 µM for individual entries
State the answer as a number, implicitly in %.

Worked set:
1. O=C(O)Cc1ccc(COc2cccc(-c3c(-c4ccccc4)cnc4c(C(F)(F)F)cccc34)c2)cc1 :: 88
2. Cc1cnc2c(Cl)cccc2c1-c1cccc(OCc2ccc(CC(=O)O)cc2)c1 :: 62
3. O=C(O)Cc1ccc(COc2cccc(-c3c(-c4ccccc4)cnc4c(Cl)cccc34)c2)cc1 :: 87
4. CC(C)(C(=O)O)c1ccc(COc2cccc(-c3c(Cc4ccccc4)cnc4c(C(F)(F)F)cccc34)c2)cc1 :: 87
5. O=C(O)Cc1ccc(C#Cc2cccc(-c3c(Cc4ccccc4)cnc4c(C(F)(F)F)cccc34)c2)cc1 :: 22

Now consider a different compound.
response.value for "O=C(O)Cc1ccc(CNc2cccc(-c3c(Cc4ccccc4)cnc4c(C(F)(F)F)cccc34)c2)cc1" (field: inhibition at 0.1 µM) = 91

====

# Test system: 5-LO mRNA
# measurement description: Downregulation of 5-LO gene expression (5-LO mRNA by real-time RT-PCR) in acetylated-LDL-stimulated macrophage cell lines
# Type: cell-based, human and mouse
# run parameters: 3.0 uM compound; macrophage cell line (THP-1 or J774, not specified)
# Method: A panel of LXR or PPAR modulator compounds was tested to determine whether they could downregulate 5-LO gene expression. […] Preparation of Acetylated LDL: LDL was dialyzed with 500 mL phosphate buffered saline (PBS) three times. […] The protein concentration is determined using Bio-Rad DC protein assay kit. […] Murine J774 cells were maintained in DMEM (high glucose) containing 10% FBS, 100 units/mL penicillin, and 100 μg/mL streptomycin. […] The cells were then ready for RNA isolation. […]
parameter measured: inhibition at 3 µM (%)
Return type: number; implicit unit %.

According to the records, this molecule "CCOc1cc(CNc2cccc(-c3c(Cc4ccccc4)cnc4c(C(F)(F)F)cccc34)c2)ccc1O" displays inhibition at 3 µM of 60

The recorded inhibition at 3 µM for "COC(=O)Cc1ccc(CNc2cccc(-c3c(C)cnc4c(C(F)(F)F)cccc34)c2)cc1" is 78

// inhibition at 3 µM value for "COC(=O)Cc1ccc(CNc2cccc(-c3c(C(=O)c4ccccc4)cnc4c(C(F)(F)F)cccc34)c2)cc1" : 71

COC(=O)C(C)c1ccc(CNc2cccc(-c3c(C)cnc4c(C(F)(F)F)cccc34)c2)cc1 (centres unmarked) yielded inhibition at 3 µM of 63

Recorded result, "CCOC(=O)Cc1cccc(CNc2cccc(-c3c(C(=O)c4ccccc4)cnc4c(C(F)(F)F)cccc34)c2)c1" , inhibition at 3 µM: 30

Entry under test: "COC(=O)C(C)(C)c1ccc(CNc2cccc(-c3c(C)cnc4c(C(F)(F)F)cccc34)c2)cc1" . Its inhibition at 3 µM was 55

For this molecule ( "COC(=O)COc1ccc(COc2cccc(-c3c(-c4ccccc4)cnc4c(C(F)(F)F)cccc34)c2)cc1" ), measured inhibition at 3 µM is 92

molecule "NNC(=O)Cc1ccc(CNc2cccc(-c3c(Cc4ccccc4)cnc4c(C(F)(F)F)cccc34)c2)cc1" , inhibition at 3 µM observed: 76
